- Test: self-splicing fitness, log relative to wild type (ln ratio); higher = more splicing; Tetrahymena group I intron in knt gene, E. coli kanamycin selection, DiMSum; sequences stand for … in CUCUCU…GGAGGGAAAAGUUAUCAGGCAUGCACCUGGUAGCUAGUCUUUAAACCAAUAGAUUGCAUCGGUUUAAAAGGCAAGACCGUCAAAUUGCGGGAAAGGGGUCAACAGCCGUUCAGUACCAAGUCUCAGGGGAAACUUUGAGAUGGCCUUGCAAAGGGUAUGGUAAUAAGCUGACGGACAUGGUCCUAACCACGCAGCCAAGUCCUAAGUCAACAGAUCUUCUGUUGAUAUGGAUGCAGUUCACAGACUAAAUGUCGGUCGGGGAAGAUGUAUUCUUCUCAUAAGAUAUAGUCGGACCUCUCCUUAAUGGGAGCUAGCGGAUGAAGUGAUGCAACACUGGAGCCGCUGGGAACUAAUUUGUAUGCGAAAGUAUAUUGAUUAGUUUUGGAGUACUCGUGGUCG;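 note: selection with 25 µg/mL kanamycin versus none on LB agar overnight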
- Assay Setup: 37 °C
In this section we review reported self-splicing fitness (ln) values for a set of sequences.
Kindly provide the number alone.

[[record]]
record_sequence = "UGGAAGCAAUAUUACGAUGU"
value_kind = "self-splicing fitness (ln)"
recorded_number = -2


### Prompt Query: self-splicing fitness (ln); subject: `GCUCAGCAAUAUUACGACUG`
### Response 0.178

### Prompt Data request, read-out self-splicing fitness (ln), for `UGGUAGCAAUAUUACGCUAG`
### Response -1.82

* * *

- Test: self-splicing fitness, log relative to wild type (ln ratio); higher = more splicing; Tetrahymena group I intron in knt gene, E. coli kanamycin selection, DiMSum; sequences stand for … in CUCUCU…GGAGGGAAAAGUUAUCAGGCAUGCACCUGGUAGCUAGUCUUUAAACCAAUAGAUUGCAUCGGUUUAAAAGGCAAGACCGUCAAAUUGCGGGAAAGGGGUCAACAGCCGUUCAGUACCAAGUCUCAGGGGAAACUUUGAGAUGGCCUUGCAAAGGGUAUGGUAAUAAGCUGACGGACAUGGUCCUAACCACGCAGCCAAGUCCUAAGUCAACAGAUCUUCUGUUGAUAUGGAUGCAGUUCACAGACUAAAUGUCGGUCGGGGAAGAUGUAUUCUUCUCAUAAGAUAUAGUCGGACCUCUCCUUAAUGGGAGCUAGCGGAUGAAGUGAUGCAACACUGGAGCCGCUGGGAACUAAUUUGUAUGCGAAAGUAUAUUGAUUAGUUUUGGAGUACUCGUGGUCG
- Assay Setup: 37 °C
Listing: self-splicing fitness (ln) of selected sequences
Please reply with the number alone, leaving off any unit.

Use the examples below as a reference point.
[[record]]
record_sequence = "GUACAGCAAUAUUACGAGGA"
value_kind = "self-splicing fitness (ln)"
recorded_number = -1.88

[[record]]
record_sequence = "GCUAAGCAAUAUUACGUUAA"
value_kind = "self-splicing fitness (ln)"
recorded_number = -1.74

[[record]]
record_sequence = "AGCGAGCAAUAUUACGGAUA"
value_kind = "self-splicing fitness (ln)"
recorded_number = -2.17

[[record]]
record_sequence = "UACAAGCAAUAUUACGCACC"
value_kind = "self-splicing fitness (ln)"
recorded_number = -1.42


### Prompt What self-splicing fitness (ln) value was documented for this sequence, `CUACAGCAAUAUUACGGACA` ?
### Response -2.47

### Prompt Could you share which self-splicing fitness (ln) value was measured for `UCUCAGCAAUAUUACGAAAG` ?
### Response -1.36

* * *

Recorded measurements of self-splicing fitness (ln), one per entry
- Test: self-splicing fitness, log relative to wild type (ln ratio); higher = more splicing; Tetrahymena group I intron in knt gene, E. coli kanamycin selection, DiMSum; sequences stand for … in CUCUCU…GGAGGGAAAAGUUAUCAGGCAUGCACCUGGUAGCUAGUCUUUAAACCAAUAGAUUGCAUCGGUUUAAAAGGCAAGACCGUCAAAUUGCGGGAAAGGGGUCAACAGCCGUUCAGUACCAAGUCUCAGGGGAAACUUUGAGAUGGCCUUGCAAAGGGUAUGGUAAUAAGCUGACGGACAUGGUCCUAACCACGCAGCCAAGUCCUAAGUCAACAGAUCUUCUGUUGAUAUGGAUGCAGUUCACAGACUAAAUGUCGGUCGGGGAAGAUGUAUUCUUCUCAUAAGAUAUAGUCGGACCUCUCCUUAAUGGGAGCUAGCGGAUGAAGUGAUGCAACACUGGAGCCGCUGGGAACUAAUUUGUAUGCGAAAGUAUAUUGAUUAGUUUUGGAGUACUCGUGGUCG
- Assay Setup: 30 °C
// keep it numeric: no unit symbol after the value

Worked examples, 2 sequences total:
[[record]]
record_sequence = "CCGGAGCAAUAUUACGGCUU"
value_kind = "self-splicing fitness (ln)"
recorded_number = -0.296

[[record]]
record_sequence = "CCGCAGCAAUAUUACGUUCG"
value_kind = "self-splicing fitness (ln)"
recorded_number = -0.778


### Prompt Which self-splicing fitness (ln) value is on record for `GGUCAGCAAUAUUACGAUAC` ?
### Response -1.32

### Prompt Requested field: self-splicing fitness (ln). Item: `GAGGAGCAAUAUUACGUCUA`
### Response -2.04

### Prompt For `GCUGAGCAAUAUUACGUUCU` , what is its reported self-splicing fitness (ln)?
### Response -0.944

### Prompt Can you share its self-splicing fitness (ln)? I mean this sequence: `UGGUAGCAAUAUUACGUUCA`
### Response -0.227

### Prompt Which value of self-splicing fitness (ln) has been reported for `UCUCAGCAAUAUUACGCUUC` in the records?
### Response -2.92

### Prompt Look up self-splicing fitness (ln): `UAGCAGCAAUAUUACGCAAU`
### Response -2.82

* * *

- Test: self-splicing fitness, log relative to wild type (ln ratio); higher = more splicing; Tetrahymena group I intron in knt gene, E. coli kanamycin selection, DiMSum; sequences stand for … in CUCUCU…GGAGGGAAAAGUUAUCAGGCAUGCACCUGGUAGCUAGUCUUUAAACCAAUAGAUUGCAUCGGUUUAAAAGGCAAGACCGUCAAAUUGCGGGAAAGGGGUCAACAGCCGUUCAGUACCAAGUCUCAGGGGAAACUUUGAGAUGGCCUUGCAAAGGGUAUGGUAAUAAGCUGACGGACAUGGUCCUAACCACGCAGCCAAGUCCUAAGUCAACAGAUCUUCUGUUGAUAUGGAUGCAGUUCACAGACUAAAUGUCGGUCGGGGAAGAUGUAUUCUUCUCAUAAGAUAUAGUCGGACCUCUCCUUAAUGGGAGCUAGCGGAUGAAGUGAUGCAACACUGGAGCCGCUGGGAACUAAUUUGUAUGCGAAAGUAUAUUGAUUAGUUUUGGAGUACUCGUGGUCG
- Assay Setup: 30 °C
Value Kind: self-splicing fitness (ln)
Please give only the number in your answer, with no unit.

[[record]]
record_sequence = "CUACAGCAAUAUUACGCGCC"
recorded_number = -3.98

[[record]]
record_sequence = "CUCUAGCAAUAUUACGUGGG"
recorded_number = -4.79

[[record]]
record_sequence = "CUUUAGCAAUAUUACGACAU"
recorded_number = -3.76

[[record]]
record_sequence = "CAACAGCAAUAUUACGAUUC"
recorded_number = -0.966

[[record]]
record_sequence = "GACUAGCAAUAUUACGAAAU"
recorded_number = -1.07


### Prompt Could you tell me which self-splicing fitness (ln) is on file for `UCCCAGCAAUAUUACGCGCC` ?
### Response -3.11

### Prompt Give its self-splicing fitness (ln) value. Item: `CUGAAGCAAUAUUACGCAUU`
### Response -2.24

* * *

- Test: self-splicing fitness, log relative to wild type (ln ratio); higher = more splicing; Tetrahymena group I intron in knt gene, E. coli kanamycin selection, DiMSum; sequences stand for … in CUCUCU…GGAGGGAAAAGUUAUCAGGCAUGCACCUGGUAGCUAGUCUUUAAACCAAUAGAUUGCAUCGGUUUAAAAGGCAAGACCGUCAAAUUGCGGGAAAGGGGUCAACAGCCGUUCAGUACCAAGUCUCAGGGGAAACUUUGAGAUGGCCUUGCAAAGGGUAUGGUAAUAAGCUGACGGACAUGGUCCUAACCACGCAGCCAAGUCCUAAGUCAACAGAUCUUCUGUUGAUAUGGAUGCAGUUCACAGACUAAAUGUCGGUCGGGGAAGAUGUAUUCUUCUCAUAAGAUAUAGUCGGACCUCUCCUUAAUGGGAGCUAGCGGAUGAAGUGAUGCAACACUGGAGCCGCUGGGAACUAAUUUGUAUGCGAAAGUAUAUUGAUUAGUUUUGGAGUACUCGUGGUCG
- Assay Setup: 30 °C
Label Criterion met when self-splicing fitness (ln) is at or above -3; anything below gets Criterion not met.

[[record]]
record_sequence = "UCAAAGCAAUAUUACGUUUA"
category_label = "Criterion met"

[[record]]
record_sequence = "AAAGAGCAAUAUUACGCCUC"
category_label = "Criterion met"

[[record]]
record_sequence = "UGUUAGCAAUAUUACGUGGU"
category_label = "Criterion not met"

[[record]]
record_sequence = "GGUGAGCAAUAUUACGUAAU"
category_label = "Criterion met"


### Prompt Exam item: decide whether the reported self-splicing fitness (ln) for `UAUCAGCAAUAUUACGCCUG` is at least -3.
### Response Criterion met

### Prompt For this sequence, is measured self-splicing fitness (ln) -3 or higher? `CUAUAGCAAUAUUACGGUAG`
### Response Criterion met
